target_or_system: T1, soluble human TF (human TF 1-219 with the FLAG peptide linked to the C-terminal) (human, UniProt P13726 33-251)
T1 construct: Entry is the whole soluble construct (TF 1-219 followed by FLAG peptide M2); also called soluble TF; shTF
T1 sequence (P13726 other isoform, or with tags, fused parts or gaps limits assumed): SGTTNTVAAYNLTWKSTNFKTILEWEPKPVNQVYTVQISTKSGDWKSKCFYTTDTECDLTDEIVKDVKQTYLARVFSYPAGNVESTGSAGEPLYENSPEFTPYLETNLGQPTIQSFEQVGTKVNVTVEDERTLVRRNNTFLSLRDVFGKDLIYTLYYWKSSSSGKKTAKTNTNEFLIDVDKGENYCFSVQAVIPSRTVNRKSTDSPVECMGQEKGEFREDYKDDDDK
assay_info: BIACORE; antibody captured on Protein G chip, soluble TF as analyte; mean ± SD, n = 3
measured_property: Kd (nM)
Only the number, expressed in nM, is required.

Past entries and their recorded results:
binder	Kd, nM
H chain humanized version b/L chain humanized version b antibody (antibody, IgG4, V domains shown, also called b-b; bb) VH: QVQLLESGAVLARPGTSVKISCKASGFNIKDYYMHWVKQRPGQGLEWIGGNDPANGHSMYDPKFQGRVTITADTSTNTAYMELSSLRSEDTAIYYCARDSGYAMDYWGQGTLVTVSS VL: DIQMTQSPSSLSASVGDRVTITCKASQDIKSFLSWYQQKPGKAPKLLIYYATSLADGVPSRFSGSGSGTDYTLTISSLQPEDFATYYCLQHGESPYTFGGGTKVEIK	2.3
H chain humanized version i/L chain humanized version b2 antibody (antibody, IgG4, V domains shown, also called i-b2; ib2) VH: QVQLLESGAVLARPGTSVKISCKASGFNIKDYYMHWVKQRPGQGLEWIGGNDPANGHSMYDPKFQGRVTITADTSTSTAYMELRSLRSDDTAVYYCARDSGYAMDYWGQGTLVTVSS VL: DIQMTQSPSSLSASVGDRVTITCKASQDIKSFLSWYQQKPEKAPKSLIYYATSLADGVPSRFSGSGSGTDYTLTISSLQPEDFATYYCLQHGESPYTFGGGTKVEIK	1.17
H chain chimeric/L chain chimeric antibody (chimeric ATR-5 antibody) (antibody, V domains shown, Mouse ATR-5 V regions joined to human C regions; Both an IgG1 (N5KG1(V)) and an IgG4 (N5KG4P) kappa form were made; also called ch-ch; cha-cha) VH: EVQLQQSGTNLVRPGALVKLSCKGSGFNIKDYYMHWVKQRPEQGLEWIGGNDPANGHSMYDPKFQGKASITADTSSNTAYLQLSSLTSEDTAVYFCARDSGYAMDYWGQGTSVTVSS VL: DIKMTQSPSSMYASLGERVTITCKASQDIKSFLSWYQQKPWKSPKTLIYYATSLADGVPSRFSGSGSGQDYSLTINNLESDDTATYYCLQHGESPYTFGGGTKLEIK	1.09

Attention now turns to another entry.
stdin: Item H chain humanized version i/L chain humanized version b antibody (antibody, IgG4, V domains shown) VH: QVQLLESGAVLARPGTSVKISCKASGFNIKDYYMHWVKQRPGQGLEWIGGNDPANGHSMYDPKFQGRVTITADTSTSTAYMELRSLRSDDTAVYYCARDSGYAMDYWGQGTLVTVSS VL: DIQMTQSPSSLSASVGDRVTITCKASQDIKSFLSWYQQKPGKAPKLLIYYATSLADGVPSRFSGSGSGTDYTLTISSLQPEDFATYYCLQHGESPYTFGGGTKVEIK has what recorded Kd?
stdout: 1.39
